# Test System: Cytochrome P450 2A6 (Homo sapiens)
# Sequence (P11509 whole entry): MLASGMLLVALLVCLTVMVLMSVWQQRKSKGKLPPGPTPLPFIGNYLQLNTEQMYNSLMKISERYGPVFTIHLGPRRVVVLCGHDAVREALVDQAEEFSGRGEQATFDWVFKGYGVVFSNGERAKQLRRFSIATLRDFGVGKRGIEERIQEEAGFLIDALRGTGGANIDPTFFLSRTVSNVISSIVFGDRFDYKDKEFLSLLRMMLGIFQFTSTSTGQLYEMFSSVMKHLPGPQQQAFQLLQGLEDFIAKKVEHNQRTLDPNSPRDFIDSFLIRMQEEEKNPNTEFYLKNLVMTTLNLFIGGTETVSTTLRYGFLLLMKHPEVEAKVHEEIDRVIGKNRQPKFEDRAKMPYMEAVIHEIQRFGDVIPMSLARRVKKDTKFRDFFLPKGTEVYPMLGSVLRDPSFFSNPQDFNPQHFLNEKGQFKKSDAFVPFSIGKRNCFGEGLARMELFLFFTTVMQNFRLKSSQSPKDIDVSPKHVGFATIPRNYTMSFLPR
Outcome Measure: IC50

Request: Give the measured IC50 of "Cl.Cl.O=C(CN1CCOCC1)Nc1ccc(OC2CCN(C3CCC3)CC2)cc1" .
Result: > 45 µM

---

# Test Description: Metabolic stability in dog liver microsomes in presence of NADPH after 30 mins by LC-MS/MS analysis
# Assay type: ADME, Canis lupus familiaris, Microsome
# Experimental Conditions: read-out: Stability
Outcome Measure: remaining at 0.5 h (%)
Provide the reading as a plain figure in %.

Request: Quick one: remaining at 0.5 h for "Cl.Cl.O=C(CN1CCOCC1)Nc1ccc(OC2CCN(C3CCC3)CC2)cc1" ?
Result: 13

---

Below is a list of entries, each paired with its recorded Ki value.
# Test System: Histamine H3 receptor (Homo sapiens, UniProt Q9Y5N1)
# Sequence (Q9Y5N1 whole entry): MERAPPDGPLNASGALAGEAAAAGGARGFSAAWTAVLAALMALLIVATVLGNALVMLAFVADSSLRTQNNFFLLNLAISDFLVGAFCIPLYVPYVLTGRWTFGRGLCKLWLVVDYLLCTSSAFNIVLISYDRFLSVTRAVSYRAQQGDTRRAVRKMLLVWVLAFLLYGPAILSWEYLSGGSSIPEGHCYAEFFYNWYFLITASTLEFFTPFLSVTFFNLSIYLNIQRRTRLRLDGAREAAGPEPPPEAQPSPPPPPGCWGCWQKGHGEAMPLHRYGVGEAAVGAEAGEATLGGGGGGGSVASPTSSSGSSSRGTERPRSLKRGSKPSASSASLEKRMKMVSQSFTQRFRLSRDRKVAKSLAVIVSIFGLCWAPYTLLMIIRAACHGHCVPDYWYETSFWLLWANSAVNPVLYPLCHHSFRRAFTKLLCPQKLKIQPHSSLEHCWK
# Test Description: Displacement of [3]-RAMH from recombinant human histamine H3 receptor expressed in CHO-K1 cell membranes after 60 mins by scintillation counting

For orientation, consider the following solved cases.
| Compound | Test System | Ki |
| --- | --- | --- |
| CCN(CC)CC(=O)Nc1ccc(OC2CCN(C3CCC3)CC2)cc1 | Histamine H3 receptor (Homo sapiens, UniProt Q9Y5N1) | 11.7 nM |
| O=C(CN1CCOCC1)Nc1ccc(CN2CCCC2)cc1 | Histamine H3 receptor (Homo sapiens, UniProt Q9Y5N1) | 114 nM |
| O=C(CN1CCS(=O)(=O)CC1)Nc1ccc(OC2CCN(C3CCC3)CC2)cc1 | Histamine H3 receptor (Homo sapiens, UniProt Q9Y5N1) | 9.17 nM |
| O=C(CN1CCOCC1)Nc1ccc(OC2CCN(C3CCC3)CC2)cc1F | Histamine H3 receptor (Homo sapiens, UniProt Q9Y5N1) | 14.9 nM |
| CCN(C(=O)CN1CCOCC1)c1ccc(OC2CCN(C3CCC3)CC2)cc1 | Histamine H3 receptor (Homo sapiens, UniProt Q9Y5N1) | 10.8 nM |

Request: Value wanted: Ki (Histamine H3 receptor (Homo sapiens, UniProt Q9Y5N1)) of entry "Cc1cc(OC2CCN(C3CCC3)CC2)ccc1NC(=O)CN1CCCC1.Cl.Cl"
Result: 1.9 nM

Request: Another compound: O=C(CN1CCOC(CO)C1)Nc1ccc(OC2CCN(C3CCC3)CC2)cc1 (centres undefined)
Result: 4.05 nM

Request: Check "O=C(CN1CCCN(C2CCC2)CC1)Nc1ccc(OC2CCN(C3CCC3)CC2)cc1" too.
Result: 1.61 nM

Request: Try this compound next: "O=C(CN1CCCCCC1)Nc1ccc(OC2CCN(C3CCC3)CC2)cc1"
Result: 2.6 nM

---

# Test System: Histamine H3 receptor (Homo sapiens, UniProt Q9Y5N1)
# Test Description: Displacement of [3]-RAMH from recombinant human histamine H3 receptor expressed in CHO-K1 cell membranes after 60 mins by scintillation counting
Outcome Measure: log10(Ki) (log10 of the value in nM)
Please interpret these as log10 of Ki where Ki is in nM.

Below, each entry is followed by its recorded log10(Ki) result.
| Chemical Structure | Test System | Result Value |
| --- | --- | --- |
| O=C(NCCN1CCCC1)c1ccc(OC2CCN(C3CCC3)CC2)cc1 | Histamine H3 receptor (Homo sapiens, UniProt Q9Y5N1) | 0.46 |
| O=C(Cc1ccncc1)Nc1ccc(OC2CCN(C3CCC3)CC2)cc1.O=C(O)C(O)C(O)C(=O)O | Histamine H3 receptor (Homo sapiens, UniProt Q9Y5N1) | 0.98 |
| C[C@@H]1CCCN1CC(=O)Nc1ccc(OC2CCN(C3CCC3)CC2)cc1 | Histamine H3 receptor (Homo sapiens, UniProt Q9Y5N1) | 0.41 |
| O=C(CN1CCC(F)CC1)Nc1ccc(OC2CCN(C3CCC3)CC2)cc1 | Histamine H3 receptor (Homo sapiens, UniProt Q9Y5N1) | 1.04 |

Request: Give the measured log10(Ki) of "CN(C)CC(=O)Nc1ccc(OC2CCN(C3CCC3)CC2)cc1" .
Result: 0.78

Request: Same lookup for "C[C@@H]1CCCN1CCc1ccc(NC(=O)CN2CCOCC2)cc1" , please.
Result: 2.03

Request: Same thing, different compound: "C[C@@H]1CCCN1CC(=O)Nc1ccc(N2CCOCC2)cc1"
Result: 3.16

Request: Input "CC(=O)N1CCN(CC(=O)Nc2ccc(OC3CCN(C4CCC4)CC3)cc2)CC1"
Result: 0.73

Request: Do the same for "CCOC(=O)N1CCN(CC(=O)Nc2ccc(OC3CCN(C4CCC4)CC3)cc2)CC1" please
Result: 0.03

Request: One more compound: "O=C(NCCN1CCCCC1)c1ccc(OC2CCN(C3CCC3)CC2)cc1"
Result: 0.51

Request: And the next one, "Cl.Cl.O=C(CN1CCCC1)Nc1ccc(OC2CCN(C3CCC3)CC2)cc1" ?
Result: 0.04

Request: What do you have for "O=C(CN1CCOCC1)Nc1cccc(OC2CCN(C3CCC3)CC2)c1" ?
Result: 2.33

---

# Test System: Histamine H3 receptor (Homo sapiens, UniProt Q9Y5N1)
# Test Description: Displacement of [3]-RAMH from recombinant human histamine H3 receptor expressed in CHO-K1 cell membranes after 60 mins by scintillation counting
Entries annotated with measured pKi
Please treat pKi as minus the base-10 logarithm of the molar concentration.

| Chemical Structure | Result Value |
| --- | --- |
| O=C(CN1CCOCC1)Nc1ccc(OC2CCN(C3CCC3)CC2)c(F)c1 | 7.21 |
| CC(C)N1CCC(Oc2ccc(C(=O)NCCN3CCCCC3)cc2)CC1 | 8.02 |
| CC(C)N1CCC(Oc2ccc(NC(=O)CN3CCCCC3)cc2)CC1 | 8.42 |
| O=C(CN1CCOCC1)Nc1ccc(OC2CCN(C3CCC3)CC2)cc1C(F)(F)F | 7.12 |
| CC(C)N1CCCN(CC(=O)Nc2ccc(OC3CCN(C4CCC4)CC3)cc2)CC1 | 9.02 |

Request: # get_value(readout= pKi, system= Histamine H3 receptor (Homo sapiens, UniProt Q9Y5N1)) for "C[C@@H]1CCCN1CC(=O)Nc1ccc(CN2CCOCC2)cc1"
Result: 6.04

Request: And then "CC(C)N1CCC(Oc2ccc(C(=O)NCCN3CCCC3)cc2)CC1" , what is it?
Result: 7.98

Request: And then "O=C(CN1CCC(O)CC1)Nc1ccc(OC2CCN(C3CCC3)CC2)cc1" , what is it?
Result: 8.19

Request: Cool, now "O=C(CN1CCCCC1)Nc1ccc(OC2CCN(C3CCC3)CC2)cc1C(F)(F)F"
Result: 7.83

Request: Repeat for the following compound: "O=C(CN1CCCC1)Nc1ccc(OC2CCN(C3CCC3)CC2)cc1C(F)(F)F"
Result: 7.57

Request: Now the compound "Cl.Cl.O=C(CN1CCCCC1)Nc1ccc(OC2CCN(C3CCC3)CC2)cc1"
Result: 8.32

Request: Same again, this time with "O=C(CN1CCCCC1)Nc1ccc(OC2CCN(C3CCCC3)CC2)cc1"
Result: 8.39
